- TEST: log P by HPLC on reversed-phase column (C18), EEC Directive 79/831 Annex V.A8
- Format: physicochemical
- SETTINGS: C18, 40° C., acidic
Binary classification by log p acidic, with 2 as an inclusive lower bound for 1 (yes); all other cases are 0 (no).

Identify whether the reported log p acidic of the following compound is 2 or greater: CCN(C)C=Nc1cc(F)c(-c2ccc(Cl)c(C(F)(F)F)c2)cc1C [compound 656] 1 (yes)

Identify whether the reported log p acidic of the following compound is 2 or greater: CCN(C)C=Nc1cc(Cl)c(Oc2cc(Cl)cc(C(F)(F)F)c2)cc1C [compound 565] 1 (yes)

Identify whether the reported log p acidic of the following compound is 2 or greater: CCN(C)C=Nc1cc(C(F)(F)F)c(Oc2cccc(C(C)(C)C)c2)cc1C [compound 761] 1 (yes)

Data credit: patent US20100113276A1
